Assay: Solubility of the compound at 4.5 mg after 24 hrs by HPLC analysis
Format: physicochemical
assay-metric: solubility at 24 h (µM)
Give bare numbers, in µM.

Tell me solubility at 24 h reported for "CN1CCN(C(=O)Oc2cccc(-c3cc(-c4ccccc4)nc(N)n3)c2)CC1"
0.22

----------
Experiment: n-octanol-potassium phosphate buffer partition coefficient, log D of the compound at pH 7.4 by shake flask method
Assay type: physicochemical
assay-metric: logD
One number for each entry.

Tell me logD reported for "CN1CCN(C(=O)Oc2cccc(-c3cc(-c4ccccc4)nc(N)n3)c2)CC1"
4.03

----------
System: Adenosine receptor A2a (Rattus norvegicus) | Read-out: pKi
Sequence (P30543 whole entry): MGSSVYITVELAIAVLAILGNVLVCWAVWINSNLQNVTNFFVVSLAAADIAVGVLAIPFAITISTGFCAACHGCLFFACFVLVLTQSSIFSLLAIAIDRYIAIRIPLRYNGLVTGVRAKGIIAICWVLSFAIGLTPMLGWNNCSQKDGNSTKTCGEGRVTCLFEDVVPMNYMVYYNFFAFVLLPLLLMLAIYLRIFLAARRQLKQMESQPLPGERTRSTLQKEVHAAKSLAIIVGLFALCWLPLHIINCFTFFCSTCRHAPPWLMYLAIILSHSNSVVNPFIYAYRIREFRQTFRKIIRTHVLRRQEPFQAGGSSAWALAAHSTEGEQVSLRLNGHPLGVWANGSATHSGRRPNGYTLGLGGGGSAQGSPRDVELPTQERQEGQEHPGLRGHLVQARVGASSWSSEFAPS
One number for each entry, as −log10 of the molar value.

Here's what some known entries look like.
smiles-input	assay-metric	observed
CCN(CC)C(=O)Oc1cccc(-c2cc(-c3ccccc3)nc(N)n2)c1	pKi	7.64
CN1CCN(C(=O)Oc2cccc(-c3cc(-c4ccccc4)nc(N)n3)c2)CC1	pKi	8.80
Nc1nc(-c2ccccc2)cc(-c2cccc(OC(=O)N3CCOCC3)c2)n1	pKi	8.46
CN(C)C(=O)Oc1cccc(-c2cc(-c3ccccc3)nc(N)n2)c1	pKi	7.28
Nc1nc(-c2ccccc2)cc(-c2cccc(OC(=O)N(c3ccccc3)c3ccccc3)c2)n1	pKi	6.35
CN(C(=O)Oc1cccc(-c2cc(-c3ccccc3)nc(N)n2)c1)c1ccccc1	pKi	7.40

Continue with the compound presented below.
Report pKi on Adenosine receptor A2a (Rattus norvegicus) for this entry: "CC(C)N(C(=O)Oc1cccc(-c2cc(-c3ccccc3)nc(N)n2)c1)C(C)C"
7.92

----------
Molecular target: Adenosine receptor A1 (Rattus norvegicus)
Sequence (P25099 whole entry): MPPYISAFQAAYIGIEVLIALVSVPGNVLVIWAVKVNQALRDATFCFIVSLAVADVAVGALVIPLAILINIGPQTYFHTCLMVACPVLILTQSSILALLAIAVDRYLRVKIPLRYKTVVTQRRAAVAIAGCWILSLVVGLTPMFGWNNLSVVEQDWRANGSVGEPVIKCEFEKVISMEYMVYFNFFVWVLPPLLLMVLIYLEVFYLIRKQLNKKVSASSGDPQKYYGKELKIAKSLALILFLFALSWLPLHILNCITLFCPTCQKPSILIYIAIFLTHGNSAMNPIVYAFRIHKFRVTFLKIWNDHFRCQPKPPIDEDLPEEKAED
Assay: Displacement of [3H]DPCPX from adenosine A1 receptor in Sprague-Dawley rat whole brain after 1 hr by scintillation counting
Record form. Attribute: Ki. Fill in for each entry.

Here's what some known entries look like.
smiles-input	Ki
Nc1nc(-c2ccccc2)cc(-c2cccc(OC(=O)N(c3ccccc3)c3ccccc3)c2)n1	10.7 nM
Nc1nc(-c2ccccc2)cc(-c2cccc(OC(=O)N3CCCC3)c2)n1	0.835 nM
Nc1nc(-c2ccccc2)cc(-c2cccc(OC(=O)N3CCOCC3)c2)n1	2.65 nM
CN1CCN(C(=O)Oc2cccc(-c3cc(-c4ccccc4)nc(N)n3)c2)CC1	2.04 nM
CCN(CC)C(=O)Oc1cccc(-c2cc(-c3ccccc3)nc(N)n2)c1	0.468 nM
CC(C)N(C(=O)Oc1cccc(-c2cc(-c3ccccc3)nc(N)n2)c1)C(C)C	0.175 nM
CN(C)C(=O)Oc1cccc(-c2cc(-c3ccccc3)nc(N)n2)c1	2.06 nM
Nc1nc(-c2ccccc2)cc(-c2cccc(OC(=O)N3CCCCC3)c2)n1	1.95 nM

Tell me Ki reported for "CN(C(=O)Oc1cccc(-c2cc(-c3ccccc3)nc(N)n2)c1)c1ccccc1"
1.07 nM
